# Organism: Rattus norvegicus
# procedure.details: Open TG-GATES - Regimen: Daily Repeat
# Type: toxicity, organism-based, Sprague-Dawley
# Design: regimen Daily Repeat, gender Male, age 6 weeks
# condition.info: in vivo, po, 100 mg/kg, […], tissue Blood, route gavage, dose level Low, time 7 day
reported.metric: PT (s)

| smiles.notation | unit | result.value |
| --- | --- | --- |
| CCOc1ccc(NC(C)=O)cc1 | s | 13.4 |
| COC(=O)C1=C(C)NC(C)=C(C(=O)OC)C1c1ccccc1[N+](=O)[O-] | s | 13.7 |
| O=C(OC[C@H]1O[C@@H](OC(=O)c2cc(O)c(O)c(OC(=O)c3cc(O)c(O)c(O)c3)c2)[C@H](OC(=O)c2cc(O)c(O)c(OC(=O)c3cc(O)c(O)c(O)c3)c2)[C@@H](OC(=O)c2cc(O)c(O)c(OC(=O)c3cc(O)c(O)c(O)c3)c2)[C@@H]1OC(=O)c1cc(O)c(O)c(OC(=O)c2cc(O)c(O)c(O)c2)c1)c1cc(O)c(O)c(OC(=O)c2cc(O)c(O)c(O)c2)c1 | s | 11 |
| CN/C(=N/CCSCc1nc[nH]c1C)NC#N | s | 12.2 |
| CNC(=C[N+](=O)[O-])NCCSCc1ccc(CN(C)C)o1 | s | 12.3 |
| Cc1nnc2n1-c1ccc(Cl)cc1C(c1ccccc1Cl)=NC2 | s | 13 |

* * *

# reported K; entries follow
# Species on record: Rattus norvegicus
# procedure.details: Open TG-GATES - Regimen: Daily Repeat
# Type: toxicity, organism-based, Sprague-Dawley
# Design: regimen Daily Repeat, gender Male, age 6 weeks
# condition.info: in vivo, po, 100 mg/kg, […], tissue Plasma, route gavage, dose level Low, time 28 day
reported.metric: K (meq/L)

| smiles.notation | reported.metric | result.value |
| --- | --- | --- |
| CCOc1ccc(NC(C)=O)cc1 | K | 3.7 |
| O=C(OC[C@H]1O[C@@H](OC(=O)c2cc(O)c(O)c(OC(=O)c3cc(O)c(O)c(O)c3)c2)[C@H](OC(=O)c2cc(O)c(O)c(OC(=O)c3cc(O)c(O)c(O)c3)c2)[C@@H](OC(=O)c2cc(O)c(O)c(OC(=O)c3cc(O)c(O)c(O)c3)c2)[C@@H]1OC(=O)c1cc(O)c(O)c(OC(=O)c2cc(O)c(O)c(O)c2)c1)c1cc(O)c(O)c(OC(=O)c2cc(O)c(O)c(O)c2)c1 | K | 4.3 |
| CNC(=C[N+](=O)[O-])NCCSCc1ccc(CN(C)C)o1 | K | 3.6 |
| Cc1nnc2n1-c1ccc(Cl)cc1C(c1ccccc1Cl)=NC2 | K | 4.1 |
| CN/C(=N/CCSCc1nc[nH]c1C)NC#N | K | 3.5 |
| COC(=O)C1=C(C)NC(C)=C(C(=O)OC)C1c1ccccc1[N+](=O)[O-] | K | 3.9 |

* * *

# Species: Rattus norvegicus
# procedure.details: Open TG-GATES - Regimen: Single
# Type: toxicity, organism-based, Sprague-Dawley
# Parameters: regimen Single, gender Male, age 6 weeks
# condition.info: in vivo, po, 0 mg/kg, 6 h, tissue Plasma, route gavage, dose level Control
Below: a set of entries, each annotated with reported IP.

| compound | IP [mg/dL] |
| --- | --- |
| O=C(OC[C@H]1O[C@@H](OC(=O)c2cc(O)c(O)c(OC(=O)c3cc(O)c(O)c(O)c3)c2)[C@H](OC(=O)c2cc(O)c(O)c(OC(=O)c3cc(O)c(O)c(O)c3)c2)[C@@H](OC(=O)c2cc(O)c(O)c(OC(=O)c3cc(O)c(O)c(O)c3)c2)[C@@H]1OC(=O)c1cc(O)c(O)c(OC(=O)c2cc(O)c(O)c(O)c2)c1)c1cc(O)c(O)c(OC(=O)c2cc(O)c(O)c(O)c2)c1 | 10.1 |
| Brc1ccccc1 | 10 |
| Nc1c2c(nc3ccccc13)CCCC2 | 9.2 |
| CN(C)CCC(c1ccc(Cl)cc1)c1ccccn1 (configuration not stated) | 10.7 |
| CC(C)NNC(=O)c1ccncc1 | 9.3 |
| CN1C(=O)CCS(=O)(=O)C1c1ccc(Cl)cc1 (configuration not stated) | 9.8 |
| CS(=O)(=O)O.Cc1ccc(NC(=O)c2ccc(CN3CCN(C)CC3)cc2)cc1Nc1nccc(-c2cccnc2)n1 [IMATINIB MESYLATE] | 9.6 |

Hello, the source for this data is ChEMBL document CHEMBL3885861, in case you need it.
